tested_target: GDP-bound KRAS protein (aa 1-169), containing both G12C and C118A amino acid substitutions (Homo sapiens (Human), UniProt P01116, C118A/G12C)
Sequence (P01116 other isoform, or with tags, fused parts or gaps G12C/C118A): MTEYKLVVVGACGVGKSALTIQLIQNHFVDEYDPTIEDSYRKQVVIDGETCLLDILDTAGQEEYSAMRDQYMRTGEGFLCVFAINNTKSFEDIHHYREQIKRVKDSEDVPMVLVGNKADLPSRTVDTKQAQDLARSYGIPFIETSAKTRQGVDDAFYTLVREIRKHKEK
procedure_summary: Coupled nucleotide exchange assay (SOS-mediated nucleotide exchange, AlphaScreen)
Assay type: biochemical
particulars: read-out: Coupled exchange IC50 (5 min; μM); 5 min compound pre-incubation
property_label: IC50 (µM)
Give bare numbers, in µM.

Solved entries (count: 8):
{"columns": ["compound", "observed"],
 "data": [
  ["C=CC(=O)N1C[C@H](C)N(c2nc(=O)n(-c3c(C(C)C)nc(C#N)nc3C(C)C)c3nc(-c4ccccc4F)c(Cl)cc23)C[C@H]1C [Example 155]", 0.104],
  ["C=CC(=O)N1C[C@H](C)N(c2nc(=O)n(-c3c(N(C)C)ccnc3C(C)C)c3nc(-c4ccccc4C)c(Cl)cc23)C[C@H]1C (single isomer, unassigned) [Example 103-7-2]", 0.088],
  ["C=CC(=O)N1CCN(c2nc(=O)n(CC(C)(C)C)c3nc(-c4ccccc4F)c(Cl)cc23)C(CC#N)C1 (centres unmarked) [Example 145-3]", 3.82],
  ["C=CC(=O)N1C[C@H](C)N(c2nc(=O)n(-c3c(C)ccnc3C(C)C)c3nc(-c4ccccc4F)c(Cl)nc23)C[C@H]1C [Example 106-6]", 0.322],
  ["C=CC(=O)N1[C@H](C)CN(c2nc(=O)n(-c3c(C)ccnc3C(C)C)c3nc(-c4ccccc4F)c(Cl)nc23)C[C@@H]1C (single isomer, unassigned) [Example 224-2]", 1.29],
  ["C=CC(=O)N1C[C@H](C)N(c2nc(=O)n(-c3c(N(C)C)ccnc3C(C)C)c3nc(-c4ccccc4C(C)C)c(Cl)cc23)C[C@H]1C (single isomer, unassigned) [Example 103-1-2]", 0.053],
  ["C=CC(=O)N1C[C@H](C)N(c2nc(=O)n3c4nc(c(Cl)cc24)-c2ccccc2C/C=C\\Cc2ccccc2-3)C[C@H]1C (single isomer, unassigned) [Example 146-3-3]", 57.3],
  ["C=CC(=O)N1C[C@H](C)N(c2nc(=O)n(-c3c(C(C)C)ncnc3C(C)C)c3nc(-c4ccc(C#N)cc4F)c(Cl)cc23)C[C@H]1C [Example 100-2]", 0.324]
]}

Each of the following entries comes with a recorded value; kindly state IC50 for each.
1. C=CC(=O)N1C[C@H](C)N(c2nc(=O)n(-c3c(C)ccnc3C(C)C)c3nc(-c4ccccc4S(N)(=O)=O)c(Cl)cc23)C[C@H]1C (atropisomer, axis not shown; (M)) [Example 92-33]
2. C=CC(=O)N1C[C@H](C)N(c2nc(=O)n(-c3c(C)ccnc3C(C)C)c3nc(C4=CCOCC4)c(Cl)cc23)C[C@H]1C (atropisomer, axis not shown; (M)) [Example 92-9]

[reply]
1. 0.113
2. 8.53

[ask] Look at this compound and give its reported IC50. C=CC(=O)N1C[C@H](C)N(c2nc(=O)n(-c3c(C)ccnc3C(C)C)c3nc(-c4cc(C)ccc4F)c(F)cc23)C[C@H]1C (atropisomer, axis not shown; (M)) [Example 94-4]
[reply] 0.222
